The values you see were collected from patent US20250382376A1.

# Study system: T1, CD73 on the surface of human cells (human, UniProt P21589 27-549)
# T1 construct: whole, on cells; The cell line of each value is named under assay or readout; also called CD73 on the surface of tumor cells; CD73 enzyme on the surface of MDA-MB-231 cells
# T1 sequence (looked up): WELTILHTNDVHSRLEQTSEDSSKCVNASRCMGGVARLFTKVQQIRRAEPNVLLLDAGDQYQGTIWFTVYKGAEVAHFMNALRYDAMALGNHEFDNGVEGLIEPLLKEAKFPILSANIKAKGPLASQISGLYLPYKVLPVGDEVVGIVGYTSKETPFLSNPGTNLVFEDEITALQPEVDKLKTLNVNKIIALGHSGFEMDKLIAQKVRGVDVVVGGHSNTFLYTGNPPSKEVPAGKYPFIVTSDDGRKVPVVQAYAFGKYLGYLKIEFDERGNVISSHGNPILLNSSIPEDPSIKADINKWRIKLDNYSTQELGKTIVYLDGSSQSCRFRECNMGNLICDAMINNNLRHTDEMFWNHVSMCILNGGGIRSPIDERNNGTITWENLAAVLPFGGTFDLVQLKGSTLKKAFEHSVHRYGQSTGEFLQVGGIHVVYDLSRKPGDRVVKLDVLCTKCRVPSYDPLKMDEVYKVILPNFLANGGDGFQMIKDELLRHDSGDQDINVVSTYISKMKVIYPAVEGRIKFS
# Protocol text: Flow cytometry on NCI-H1975 cells, PE-labelled secondary antibody [panel B]
Kindly supply the reported Max MFI values for the records listed here.
Numbers only, in MFI.

Illustrative cases are given below, each with its answer.
binder="chimeric nanobody 5-E11 (Fc fusion, Human-alpaca chimeric antibody (VHH on hIgG1 Fc); Only the VHH is tied to the tested molecule; also called original antibody 5-E11) VHH: ALQLVESGGGLVQPGGSLRLSCEVSGFTLDYYNIGWFRQAPGKEREGVSCSSNSGGSTYYADSVKGRFTISRDNAKNTVYLQMNSLKPEDTGVYYCAAYRGWHPSLDARVYDYWGQGTEVTVSS" reported_result=79700
binder="chimeric nanobody 3-D7 (Fc fusion, Human-alpaca chimeric antibody (VHH on hIgG1 Fc); Only the VHH is tied to the tested molecule; 37-39 exist for 3-D7-FC1/FC2/FC3; also called original antibody 3-D7) VHH: QRQLVESGGGLVQPGGSLRLSCAASGFLLDYYVIGWFRQAPGKEREGVSCISGSDRSTYYADSVKGRFTISRDNAKNTVYLQMNSLKPEDTAVYFCAADPSPVTVQAMCLPRFPVPYWGQGTQVTVST" reported_result=80900
binder="chimeric nanobody 4-B02 (Fc fusion, Human-alpaca chimeric antibody) VHH: EVQLVESGGGLVQPGGSLRLSCAASGFPLDYYSIGWFRQAPGKEREGVSCIGSSDGSTYYADSVKGRFTISRDNAENTVWLQMNSLKPEDTAVYYCAALKYYYCSGHEAIYDYWGQGTQVTVSG" reported_result=82700

Let's switch to this binder now.
# query: Max MFI of entry chimeric nanobody 4-D04 (Fc fusion, Human-alpaca chimeric antibody) VHH: QLQLVESGGGLVQPGGSLRLSCAASGFTLDYYNIGWFRQAPGKEREGVSCISSSEGSTYYADSVKGRFTISRDNAKNTVYLQMNSLKPEDTAVYYCAADRYYYCSLHVSQYDYWGQGTLVTVSS
86100
